For each of the compounds below, state its Emax.
Molecular target: 5-HT2A (Homo sapiens)
Assay: cell-based
Design: expressed in transfected cells; host or cells: HEK293T, transient
Settings: read-out: 5-HT2A β-arrestin Emax (% 5-HT), BRET, mean ± SEM
Procedure: After at least 18-24 hours, transfected cells were plated in poly-lysine coated 96-well white clear bottom cell culture plates in DMEM containing 1% dialyzed FBS at a density of 25-40,000 cells in 200 μL per well and incubated overnight. […] Fifteen minutes before reading, 10 μL of the RLuc substrate, either coelenterazine h for β-Arrestin recruitment BRET^1 or coelenterazine 400a for Gq dissociation BRET^2 (Prolume/Nanolight, 5 μM final concentration) was addedper well. […]
One number for each entry, in %.

{"COMPOUND": "COc1cc(OC)c(OC)cc1CCNCc1ccccc1-c1cccs1", "Emax [%]": 100}

Go through the items and report each one's Emax.
1. COc1cc(OC)c(OC)cc1CCNCc1cccc(C)c1C
2. COc1cc([N+](=O)[O-])c(OC)cc1CCNCc1ccccc1OC [25N-NBOMe (4)]
3. COc1cc(Cl)ccc1CCNCc1cccc2ccccc12

Solution:
1: 73.9; 2: 136; 3: 83.6

---

Target: 5-HT2C (Homo sapiens, UniProt P28335)
Sequence (P28335 33-458): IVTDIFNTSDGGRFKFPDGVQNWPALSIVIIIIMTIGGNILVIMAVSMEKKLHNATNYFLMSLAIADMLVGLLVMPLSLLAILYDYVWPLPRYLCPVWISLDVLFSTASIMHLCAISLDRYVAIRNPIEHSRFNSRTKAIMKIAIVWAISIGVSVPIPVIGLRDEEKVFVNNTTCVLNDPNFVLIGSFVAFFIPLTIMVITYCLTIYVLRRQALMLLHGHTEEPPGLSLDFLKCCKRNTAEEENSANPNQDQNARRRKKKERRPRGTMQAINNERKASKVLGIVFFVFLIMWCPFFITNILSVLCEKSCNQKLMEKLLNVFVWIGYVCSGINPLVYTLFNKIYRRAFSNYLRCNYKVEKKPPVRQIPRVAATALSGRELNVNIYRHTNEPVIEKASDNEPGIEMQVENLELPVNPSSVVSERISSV
Experiment: BRET Gq dissociation, 5-HT2C
Assay type: cell-based
Set-up: expressed in transfected cells; host or cells: HEK293T, transient
Details: read-out: 5-HT2C Gq Dissociation (BRET) EMAX ± SEM (%5-HT)
For each of the compounds below, state its Emax.

{"COMPOUND": "COc1cc([N+](=O)[O-])c(OC)cc1CCNCc1ccccc1OC [25N-NBOMe (4)]", "Emax": "112%"}

Go through the items and report each one's Emax.
1. COc1cc(OC)c(OC)cc1CCNCc1ccccc1-c1ccco1 [(58)]
2. COc1cc([N+](=O)[O-])c(OC)cc1CCNCc1ccccc1[N+](=O)[O-] [25N-NBNO2 (15)]
3. COc1cc([N+](=O)[O-])c(OC)cc1CCNCc1cccc2ccccc12 [25N-N-1-Nap (16)]
4. COc1cc(OC)c(OC)cc1CCNCc1cccc(I)c1 [(53)]
5. COc1cc([N+](=O)[O-])c(OC)cc1CCNCc1ccccc1 [25N-NB (2)]
6. COc1cc(OC)c(OC)cc1CCNCc1cccc2cnccc12 [(56)]
7. COc1cc(OC)c(OC)cc1CCNCc1cccc(I)c1O [(49)]

Solution:
1: 94%; 2: 61.3%; 3: 34.1%; 4: 91.5%; 5: 89.4%; 6: 80.9%; 7: 93.5%

---

For each of the compounds below, state its Emax.
Target: 5-HT2A (Homo sapiens, UniProt P28223)
Sequence (P28223 whole entry): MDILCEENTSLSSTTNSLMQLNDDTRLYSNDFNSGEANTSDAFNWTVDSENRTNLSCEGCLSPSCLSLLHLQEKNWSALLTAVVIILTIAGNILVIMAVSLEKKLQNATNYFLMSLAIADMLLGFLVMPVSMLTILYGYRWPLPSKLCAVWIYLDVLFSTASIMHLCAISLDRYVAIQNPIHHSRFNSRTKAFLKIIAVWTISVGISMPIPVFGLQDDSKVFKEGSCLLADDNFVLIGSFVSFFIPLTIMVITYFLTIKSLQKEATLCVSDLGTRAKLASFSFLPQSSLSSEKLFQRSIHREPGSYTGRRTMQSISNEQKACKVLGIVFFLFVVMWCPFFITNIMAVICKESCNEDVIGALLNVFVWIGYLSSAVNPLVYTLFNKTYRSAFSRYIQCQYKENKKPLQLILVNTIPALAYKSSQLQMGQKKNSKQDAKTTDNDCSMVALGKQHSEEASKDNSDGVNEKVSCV
Experiment: cell-based
Set-up: expressed in transfected cells; host or cells: HEK293T, transient
Details: read-out: 5-HT2A Gq Emax (% 5-HT), BRET, mean ± SEM
Description: After at least 18-24 hours, transfected cells were plated in poly-lysine coated 96-well white clear bottom cell culture plates in DMEM containing 1% dialyzed FBS at a density of 25-40,000 cells in 200 μL per well and incubated overnight. […] Fifteen minutes before reading, 10 μL of the RLuc substrate, either coelenterazine h for β-Arrestin recruitment BRET^1 or coelenterazine 400a for Gq dissociation BRET^2 (Prolume/Nanolight, 5 μM final concentration) was addedper well. […]

{"COMPOUND": "COc1cc([N+](=O)[O-])c(OC)cc1CCNCc1cccc(O)c1 [25N-NB-3-OH (21)]", "Emax": "49.8%"}
{"COMPOUND": "COc1cc(OC)c(OC)cc1CCNCc1ccc(-c2cccs2)s1", "Emax": "49%"}
{"COMPOUND": "COc1cc(OC)c(OC)cc1CCNCc1cccc2cccnc12", "Emax": "54.3%"}
{"COMPOUND": "COc1cc([N+](=O)[O-])c(OC)cc1CCNCc1cccc(F)c1OC [25N-NB-2-MeO-3-F (19)]", "Emax": "71.1%"}
{"COMPOUND": "COc1cc(OC)c(OC)cc1CCNCc1cccc(Br)c1O", "Emax": "53.6%"}
{"COMPOUND": "COc1cc(OC)c(OC)cc1CCNCc1cccc2ncccc12", "Emax": "34.2%"}

Next compound, Emax to be filled in.
Exercise: If you can, please state the reported Emax value of COc1cc(OC)c(OC)cc1CCNCc1cccc(-c2ccccc2)c1 .
Solution: 23.7%
